tested-on: T1, human αVβ6 integrin on cells (human, UniProt P06756 31-1048; P18564 22-788)
T1 construct: whole, on cells; Heterodimer on transfected cells (HEK 293, K562, 293T) or on αVβ6-positive tumour lines (HT29, Detroit-562); also called αVβ6 on HEK 293, K562, 293T-αVβ6, HT29, Detroit-562 cells
protocol-notes: FMAT, HEK 293 cells overexpressing αVβ6, supernatant
measured-endpoint: FMAT FL1 × Count
Give bare numbers.

Q) Answer with reported FMAT FL1 × Count of sc 254 (antibody, V domains shown) VH: QVQLQESGPGLVKPSQTLSLTCTVSGGSISSGGYYWSWIRQHPGKGLEWIGYIYYSGSTYYNPSLKSRVTISVDTSKNQFSLKLSSVTAADTAMYYCARYRGPAAGRGDFYYFGMDVWGQGTTVTVSS VL: DIVMTQTPLSLSVTPGQPASIFCKSSQSLLNSDGKTYLCWYLQKPGQPPQLLIYEVSNRFSGVPDRFSGSGSGTDFTLKISRVEAEDVGVYYCMQGIQLPWAFFGQGTKVEIK
A) 1.6e+06
